Each recorded value in this set is attributed to the kinase profiling compilation of Christmann-Franck et al. (2016).

Entries and their measured residual activity follow.
molecular target: JAK2 JH1 JH2 (human) (UniProt O60674); assay: radiometric filter-binding kinase assay, Kinase HotSpot; conditions: compound 0.5 µM; ATP 10 µM
Sequence (O60674 whole entry, looked up): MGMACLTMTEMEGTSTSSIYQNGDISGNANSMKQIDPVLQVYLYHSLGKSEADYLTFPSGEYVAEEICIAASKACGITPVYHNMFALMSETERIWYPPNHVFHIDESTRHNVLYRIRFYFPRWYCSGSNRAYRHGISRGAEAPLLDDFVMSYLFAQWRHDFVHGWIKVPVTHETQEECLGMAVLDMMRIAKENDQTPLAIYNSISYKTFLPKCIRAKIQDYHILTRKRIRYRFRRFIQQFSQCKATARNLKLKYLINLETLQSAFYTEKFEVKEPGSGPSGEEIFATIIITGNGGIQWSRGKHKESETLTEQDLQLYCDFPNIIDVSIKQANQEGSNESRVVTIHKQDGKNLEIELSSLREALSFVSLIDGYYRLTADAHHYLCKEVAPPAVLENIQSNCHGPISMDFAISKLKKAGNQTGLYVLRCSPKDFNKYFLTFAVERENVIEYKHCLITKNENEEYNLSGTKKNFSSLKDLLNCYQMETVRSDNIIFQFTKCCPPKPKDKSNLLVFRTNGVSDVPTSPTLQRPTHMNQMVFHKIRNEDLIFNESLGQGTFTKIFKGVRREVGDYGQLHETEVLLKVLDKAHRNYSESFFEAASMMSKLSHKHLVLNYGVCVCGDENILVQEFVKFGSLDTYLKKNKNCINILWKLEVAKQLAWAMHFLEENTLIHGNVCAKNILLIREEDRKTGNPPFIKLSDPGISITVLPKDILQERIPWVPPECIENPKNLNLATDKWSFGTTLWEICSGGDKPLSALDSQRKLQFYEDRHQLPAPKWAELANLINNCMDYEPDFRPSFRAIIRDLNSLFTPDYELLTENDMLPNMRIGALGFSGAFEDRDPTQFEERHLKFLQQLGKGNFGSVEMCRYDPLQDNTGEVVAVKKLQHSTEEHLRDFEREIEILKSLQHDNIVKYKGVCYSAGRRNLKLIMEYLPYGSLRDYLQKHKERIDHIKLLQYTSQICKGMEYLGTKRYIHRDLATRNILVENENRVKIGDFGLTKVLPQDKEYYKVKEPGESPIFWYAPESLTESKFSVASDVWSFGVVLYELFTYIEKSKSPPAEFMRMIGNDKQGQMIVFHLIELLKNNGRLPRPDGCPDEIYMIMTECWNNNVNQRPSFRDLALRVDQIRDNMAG
Quick reminder: number only, in %, skip the unit.

Qu. Which residual activity is reported for this compound? "N#CCCc1ccc2c(c1)-c1[nH]c3ccc([N+](=O)[O-])cc3c1CC(=O)N2"
Ans. 93

Qu. Note, next up: "CCc1nc(-c2ccc(OC)cc2)[nH]c1-c1ccncc1"
Ans. 96.7

Qu. Note, next up: "Cn1cc(/C=C2\C(=O)Nc3ccc(S(N)(=O)=O)cc32)c2ccccc21"
Ans. 58.4

* * *

biological target: MYLK (human); experiment: radiometric filter-binding kinase assay, Kinase HotSpot; details: compound 0.5 µM; ATP 10 µM
Entries and their measured residual activity follow.
Quick reminder: number only, in %, skip the unit.

# example entries with known answers
Smiles Input: O=C1NC(=O)c2c1c1c3ccccc3[nH]c1c1[nH]c3cc(Br)ccc3c21
Measurement Units: %
Obs Value: 85.3

Smiles Input: FC(F)(F)c1ccc(/C=C/c2nc(COc3ccc(CCCCn4ccnn4)cc3)co2)cc1
Measurement Units: %
Obs Value: 94.8

Smiles Input: CCOc1cc2ncnc(Nc3cccc(Br)c3)c2cc1OCC
Measurement Units: %
Obs Value: 89.4

Smiles Input: O=C1NC(=O)c2cc(Nc3ccc(F)cc3)c(Nc3ccc(F)cc3)cc21
Measurement Units: %
Obs Value: 100

Smiles Input: COc1cc2c(cc1OC)-c1[nH]nc(Nc3cccc(F)c3)c1C2
Measurement Units: %
Obs Value: 102

Smiles Input: O=S(=O)(NCCNC/C=C/c1ccc(Br)cc1)c1cccc2cnccc12
Measurement Units: %
Obs Value: 90.8

Now for a further compound.
Qu. Which residual activity is reported for this compound? "Nc1ncnc2c1cnn2-c1ccccc1"
Ans. 99.7

* * *

target: GRK5 (human); experiment: radiometric filter-binding kinase assay, Kinase HotSpot; conditions: compound 0.5 µM; ATP 10 µM
Value Kind: residual activity (%)
Quick reminder: number only, in %, skip the unit.

Smiles Input: O=c1c2ccccc2[nH]c(=S)n1CCN1CCC(=C(c2ccc(F)cc2)c2ccc(F)cc2)CC1
Value Kind: residual activity
Measurement Units: %
Obs Value: 103

Qu. Which residual activity is reported for this compound? "N#C/C(=C1/Nc2ccccc2S1)c1ccnc(NCCc2cccnc2)n1"
Ans. 93.8

Qu. Note, next up: "c1ccc(-c2cnc(Nc3ccc(OCCN4CCCC4)cc3)s2)cc1"
Ans. 99.4

Qu. Note, next up: "COc1cc2c(N3CCN(C(=O)Nc4ccc(OC(C)C)cc4)CC3)ncnc2cc1OCCCN1CCCCC1"
Ans. 106

Qu. Note, next up: "CCOc1cc2ncnc(Nc3cccc(Br)c3)c2cc1OCC"
Ans. 104

Qu. Note, next up: "COc1cc2ncnc(Nc3ccc(O)c(Br)c3)c2cc1OC"
Ans. 101

Qu. Note, next up: "N#Cc1c(NC(=O)c2cccc3ccccc23)sc2c1CCCC2"
Ans. 98.2

* * *

Entries and their measured residual activity follow.
target: CSNK2A2 (human) (UniProt P19784); assay: radiometric filter-binding kinase assay, Kinase HotSpot; details: compound 0.5 µM; ATP 10 µM
Sequence (P19784 whole entry, looked up): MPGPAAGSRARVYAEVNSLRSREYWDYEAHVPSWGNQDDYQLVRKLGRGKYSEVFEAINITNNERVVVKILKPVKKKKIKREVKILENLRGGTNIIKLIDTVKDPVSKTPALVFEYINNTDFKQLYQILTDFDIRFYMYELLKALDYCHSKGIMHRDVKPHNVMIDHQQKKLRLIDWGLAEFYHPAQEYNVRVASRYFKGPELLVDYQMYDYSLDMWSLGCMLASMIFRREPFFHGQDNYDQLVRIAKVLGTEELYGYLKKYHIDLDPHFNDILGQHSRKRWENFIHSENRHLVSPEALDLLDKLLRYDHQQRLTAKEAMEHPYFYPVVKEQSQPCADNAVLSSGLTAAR
Quick reminder: number only, in %, skip the unit.

# example entries with known answers
Smiles Input: CCc1nc(-c2ccc(OC)cc2)[nH]c1-c1ccncc1
Experimental System: CSNK2A2 (human) (UniProt P19784)
residual activity (%): 95.3

Smiles Input: COc1cccc(-c2cc(=O)c3ccccc3o2)c1N
Experimental System: CSNK2A2 (human) (UniProt P19784)
residual activity (%): 97.7

Smiles Input: Cn1cc(/C=C2\C(=O)Nc3ccc(S(N)(=O)=O)cc32)c2ccccc21
Experimental System: CSNK2A2 (human) (UniProt P19784)
residual activity (%): 66

Smiles Input: COc1cc2ncnc(Nc3ccc(O)c(Br)c3)c2cc1OC
Experimental System: CSNK2A2 (human) (UniProt P19784)
residual activity (%): 89.2

Smiles Input: O=S(=O)(NCCNC/C=C/c1ccc(Br)cc1)c1cccc2cnccc12
Experimental System: CSNK2A2 (human) (UniProt P19784)
residual activity (%): 86.6

Qu. Which residual activity is reported for this molecule? "O=C1NC(=O)c2c1c1c3ccccc3[nH]c1c1[nH]c3cc(Br)ccc3c21"
Ans. 93.2
